Attribution: ChEMBL document CHEMBL5390277

biological target: C-X-C chemokine receptor type 4 (Homo sapiens, UniProt P61073); assay: Displacement of 12G5 mAb from CXCR4 in human SUP-T1 cells incubated for 2 hrs by flow cytometry analysis; type: cell-based
Sequence (P61073 whole entry): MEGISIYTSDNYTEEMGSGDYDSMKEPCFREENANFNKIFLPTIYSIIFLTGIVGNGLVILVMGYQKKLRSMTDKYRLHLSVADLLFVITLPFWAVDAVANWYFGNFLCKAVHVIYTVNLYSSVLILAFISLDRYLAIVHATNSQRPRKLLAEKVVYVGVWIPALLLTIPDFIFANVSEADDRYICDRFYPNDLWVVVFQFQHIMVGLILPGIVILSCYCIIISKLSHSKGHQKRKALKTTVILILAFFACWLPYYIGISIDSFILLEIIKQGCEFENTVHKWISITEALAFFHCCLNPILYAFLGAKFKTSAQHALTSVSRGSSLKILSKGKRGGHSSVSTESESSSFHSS
Square brackets hold non-standard residues; d marks the D form. Peptide text beside a SMILES is read from it.
Measured Quantity: IC50 (nM)
A number alone suffices; assume nM.

Here's what some known entries look like.
{"columns": ["Molecule", "Measured"],
 "data": [
  ["CC[C@@H](C)[C@@H](NC(C)=O)C(=O)N[C@@H](CC(C)C)C(=O)N[C@@H](CCCNC(=N)N)C(=O)N[C@@H](Cc1c[nH]c2ccccc12)C(=O)N[C@@H](CO)C(=O)N[C@@H](CCCNC(=N)N)C(=O)N[C@@H](CCCCN)C(=O)N[C@@H](CC(C)C)C(=O)N1CCC[C@H]1C(=O)N[C@@H](CS)C(=O)N[C@H](C(=O)N[C@@H](CO)C(=O)O)C(C)C", 7720],
  ["CC[C@@H](C)[C@@H](N)C(=O)N[C@@H](CC(C)C)C(=O)N[C@@H](CCCNC(=N)N)C(=O)N[C@@H](Cc1c[nH]c2ccccc12)C(=O)N[C@@H](CO)C(=O)N[C@@H](CCCNC(=N)N)C(=O)N[C@@H](CCCCN)C(N)=O (H-[dI]LRWSRK-NH2)", 263],
  ["CSCC[C@H](NC(=O)[C@H](CCCCN)NC(=O)[C@H](CCCNC(=N)N)NC(=O)[C@H](CO)NC(=O)[C@H](Cc1c[nH]c2ccccc12)NC(=O)[C@H](CCCNC(=N)N)NC(=O)[C@H](CC(C)C)NC(=O)[C@H](N)CC(C)C)C(=O)N1CCC[C@H]1C(=O)N[C@@H](CS)C(=O)N[C@H](C(=O)N[C@@H](CO)C(=O)O)C(C)C (H-[dL]LRWSRKMPCVS-OH)", 310],
  ["CSCC[C@H](NC(=O)CN)C(=O)N[C@@H](CCCNC(=N)N)C(=O)N[C@@H](Cc1c[nH]c2ccccc12)C(=O)N[C@@H](CO)C(=O)N[C@@H](CCCNC(=N)N)C(=O)N[C@@H](CCCCN)C(=O)N[C@@H](CCSC)C(=O)N1CCC[C@H]1C(=O)N[C@@H](CS)C(=O)N[C@H](C(=O)N[C@@H](CO)C(=O)O)C(C)C (H-GMRWSRKMPCVS-OH)", 8730],
  ["CSCC[C@H](NC(=O)[C@H](CCCCN)NC(=O)[C@H](CCCNC(=N)N)NC(=O)[C@H](CO)NC(=O)[C@H](Cc1c[nH]c2ccccc12)NC(=O)[C@H](CCCNC(=N)N)NC(=O)[C@H](CC(C)C)NC(=O)[C@@H](CO)NC(C)=O)C(=O)N1CCC[C@H]1C(=O)N[C@@H](CS)C(=O)N[C@H](C(=O)N[C@@H](CO)C(=O)O)C(C)C", 8620]
]}

Q: Read the entry CSCC[C@H](NC(=O)[C@H](CCCCN)NC(=O)[C@H](CCCNC(=N)N)NC(=O)[C@H](CO)NC(=O)[C@H](Cc1c[nH]c2ccccc12)NC(=O)[C@H](CCCNC(=N)N)NC(=O)[C@H](CC(C)C)NC(=O)[C@H](N)Cc1ccccc1)C(=O)N1CCC[C@H]1C(=O)N[C@@H](CS)C(=O)N[C@H](C(=O)N[C@@H](CO)C(=O)O)C(C)C and write its reported IC50.
A: 1440

Q: Read the entry CSCC[C@H](NC(=O)[C@H](CCCCN)NC(=O)[C@H](CCCNC(=N)N)NC(=O)[C@H](CO)NC(=O)[C@H](Cc1c[nH]c2ccccc12)NC(=O)[C@H](CCCNC(=N)N)NC(=O)[C@H](CC(C)C)NC(=O)[C@H](CO)NC(C)=O)C(=O)N1CCC[C@H]1C(=O)N[C@@H](CS)C(=O)N[C@H](C(=O)N[C@@H](CO)C(=O)O)C(C)C and write its reported IC50.
A: 16300

Q: Read the entry CSCC[C@H](NC(=O)[C@H](CCCCN)NC(=O)[C@H](CCCNC(=N)N)NC(=O)[C@H](CO)NC(=O)[C@H](Cc1c[nH]c2ccccc12)NC(=O)[C@H](CCCNC(=N)N)NC(=O)[C@@H](CC(C)C)NC(=O)[C@@H](N)CCSC)C(=O)N1CCC[C@H]1C(=O)N[C@@H](CS)C(=O)N[C@H](C(=O)N[C@@H](CO)C(=O)O)C(C)C and write its reported IC50.
A: 824

Q: Read the entry CSCC[C@H](NC(=O)[C@H](N)Cc1ccccc1)C(=O)N[C@@H](CCCNC(=N)N)C(=O)N[C@@H](Cc1c[nH]c2ccccc12)C(=O)N[C@@H](CO)C(=O)N[C@@H](CCCNC(=N)N)C(=O)N[C@@H](CCCCN)C(=O)N[C@@H](CCSC)C(=O)N1CCC[C@H]1C(=O)N[C@@H](CS)C(=O)N[C@H](C(=O)N[C@@H](CO)C(=O)O)C(C)C and write its reported IC50.
A: 1470

Q: Read the entry CC(C)C[C@H](NC(=O)[C@@H](N)C(C)C)C(=O)N[C@@H](CCCNC(=N)N)C(=O)N[C@@H](Cc1c[nH]c2ccccc12)C(=O)N[C@@H](CO)C(=O)N[C@@H](CCCNC(=N)N)C(=O)N[C@@H](CCCCN)C(=O)N[C@@H](CC(C)C)C(=O)N1CCC[C@H]1C(=O)N[C@@H](CS)C(=O)N[C@H](C(=O)N[C@@H](CO)C(=O)O)C(C)C and write its reported IC50.
A: 298

Q: Read the entry CC[C@H](C)[C@H](N)C(=O)N[C@H](CC(C)C)C(=O)N[C@@H](CCCNC(=N)N)C(=O)N[C@@H](Cc1c[nH]c2ccccc12)C(=O)N[C@@H](CO)C(=O)N[C@@H](CCCNC(=N)N)C(=O)N[C@@H](CCCCN)C(=O)N[C@@H](CCSC)C(=O)N1CCC[C@H]1C(=O)N[C@@H](CS)C(=O)N[C@H](C(=O)N[C@@H](CO)C(=O)O)C(C)C and write its reported IC50.
A: 991

Q: Read the entry CSCC[C@H](NC(=O)[C@@H](N)CCSC)C(=O)N[C@@H](CCCNC(=N)N)C(=O)N[C@@H](Cc1c[nH]c2ccccc12)C(=O)N[C@@H](CO)C(=O)N[C@@H](CCCNC(=N)N)C(=O)N[C@@H](CCCCN)C(=O)N[C@@H](CCSC)C(=O)N1CCC[C@H]1C(=O)N[C@@H](CS)C(=O)N[C@H](C(=O)N[C@@H](CO)C(=O)O)C(C)C (H-MMRWSRKMPCVS-OH) and write its reported IC50.
A: 105
